Reference source: patent US20230227838A1

molecular target: sim3-GFP (Arabidopsis thaliana) (UniProt P93002); test: sim3-GFP IP, LC-MS/MS
Sequence (P93002 other isoform, or with tags, fused parts or gaps): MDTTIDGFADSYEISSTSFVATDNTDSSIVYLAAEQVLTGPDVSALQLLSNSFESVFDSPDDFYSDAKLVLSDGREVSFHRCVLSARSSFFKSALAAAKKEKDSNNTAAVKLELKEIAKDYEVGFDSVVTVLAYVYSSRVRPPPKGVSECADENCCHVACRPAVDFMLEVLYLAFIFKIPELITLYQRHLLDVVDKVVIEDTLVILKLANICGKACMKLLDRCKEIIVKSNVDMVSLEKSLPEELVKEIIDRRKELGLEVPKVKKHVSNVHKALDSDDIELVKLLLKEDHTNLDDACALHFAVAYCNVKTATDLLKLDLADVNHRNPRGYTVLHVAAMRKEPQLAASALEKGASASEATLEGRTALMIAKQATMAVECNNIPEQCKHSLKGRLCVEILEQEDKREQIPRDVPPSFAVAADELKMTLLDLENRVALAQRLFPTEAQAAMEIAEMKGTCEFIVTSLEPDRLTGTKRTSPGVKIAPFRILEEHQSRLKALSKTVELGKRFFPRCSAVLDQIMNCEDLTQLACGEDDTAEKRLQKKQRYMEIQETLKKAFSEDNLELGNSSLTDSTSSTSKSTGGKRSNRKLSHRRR
Give measured log10 Normalized Fold Change: SA vs Mock for each item. Keep answers brief.
Hi team, quick reminder: these entries are log10 of Normalized Fold Change: SA vs Mock (fold).

INSERT INTO assay_data (binder, value_kind, recorded_measurement) VALUES
  ('ADF6 (protein, UniProt Q9ZSK2 1-146, looked up) Actin-depolymerizing factor 6: MSFRGLSRPNAISGMGVADESKTTFLELQRKKTHRYVVFKIDESKKEVVVEKTGNPTESYDDFLASLPDNDCRYAVYDFDFVTSENCQKSKIFFFAWSPSTSGIRAKVLYSTSKDQLSRELQGIHYEIQATDPTEVDLEVLRERAN', 'log10 Normalized Fold Change: SA vs Mock', 0.35),
  ('DMR6, 2-oxoglutarate (2OG) and Fe(II)-dependent oxygenase superfamily protein (protein, UniProt Q9FLV0 1-341, looked up) Protein DOWNY MILDEW RESISTANCE 6: MAAKLISTGFRHTTLPENYVRPISDRPRLSEVSQLEDFPLIDLSSTDRSFLIQQIHQACARFGFFQVINHGVNKQIIDEMVSVAREFFSMSMEEKMKLYSDDPTKTTRLSTSFNVKKEEVNNWRDYLRLHCYPIHKYVNEWPSNPPSFKEIVSKYSREVREVGFKIEELISESLGLEKDYMKKVLGEQGQHMAVNYYPPCPEPELTYGLPAHTDPNALTILLQDTTVCGLQILIDGQWFAVNPHPDAFVINIGDQLQALSNGVYKSVWHRAVTNTENPRLSVASFLCPADCAVMSPAKPLWEAEDDETKPVYKDFTYAEYYKKFWSRNLDQEHCLENFLNN', 'log10 Normalized Fold Change: SA vs Mock', 1.19),
  ('NSP5, nitrile specifier protein 5 (protein, UniProt Q93XW5 1-326, looked up) Thiohydroximate-O-sulfate sulfur/sulfate-lyase (nitrile-forming) NSP5: MCPVENKWLKVGQKGAGPGARSSHAMTVVGNKVYCFGGELKPTIHIDNDLYVFDLETQEWSIAPATGEAPFPCFGVSMVTIGSTIYVYGGRDDKRRYNGLHSYDTETNEWKLLAPVEEGLPGRSYHSMAGDDRKVYVFGGVTAKGRVNTLHAYDVVDQKWVEYPAAGEACKGRGAPGLVVVEGRIWVLFGFDGNELGDIHCFDLASEQWKAVETTGDVPAARSVFPAVSYGKYIVIYGGEEEPHELMHMGAGKMSGEVYQLDTETLVWERIVCGNEEEKPSQRGWCAFTKAVKDGEEGLLVHGGNSPTNERLDDLVFWGFSHLNVN', 'log10 Normalized Fold Change: SA vs Mock', 3.72),
  ('DMR1, HSK, homoserine kinase (protein, UniProt Q8L7R2 35-370, looked up) Homoserine kinase: CRASVQTLVAVEPEPVFVSVKTFAPATVANLGPGFDFLGCAVDGLGDHVTLRVDPSVRAGEVSISEITGTTTKLSTNPLRNCAGIAAIATMKMLGIRSVGLSLDLHKGLPLGSGLGSSAASAAAAAVAVNEIFGRKLGSDQLVLAGLESEAKVSGYHADNIAPAIMGGFVLIRNYEPLDLKPLRFPSDKDLFFVLVSPDFEAPTKKMRAALPTEIPMVHHVWNSSQAAALVAAVLEGDAVMLGKALSSDKIVEPTRAPLIPGMEAVKKAALEAGAFGCTISGAGPTAVAVIDSEEKGQVIGEKMVEAFWKVGHLKSVASVKKLDNVGARLVNSVSR', 'log10 Normalized Fold Change: SA vs Mock', 0.33);

Moving on to the next binder.
Query block: Tell me the measured log10 Normalized Fold Change: SA vs Mock of atnudt5, NUDT5, nudix hydrolase homolog 5 (protein, UniProt Q9SJC6 1-302, looked up) Nudix hydrolase 5: MGLTKNFAFLVFCCQRYCSMDGEAFEISLLDGEEDRFGGTVVNLMEVESMTIGDFDSKLDVSLKAWKDQGKKGIWIKLPSELSSLVDTAIKKGFTYHHAENEYVMLTFWLPEPPSTLPCNASHRIGIGAFVLNKNGEMLVVQENSGYFKDKNVWKVPTGTIKEGESIWAGAVREVKEETDIDAEFVEVLSFMESHQAVWQRKTDIFFVCELEARTFEIQKQDSEIHAAKWMPVEEYVNQPYHNKEGNEMFKLIANICLKRSREKYTGFVLTTNSAKKSLYCSVDHANLLKETADQASTSLSD , please.
Result block: 1.64
